Target: Cyclin-dependent kinase 9 (Homo sapiens)
Sequence (P50750 whole entry): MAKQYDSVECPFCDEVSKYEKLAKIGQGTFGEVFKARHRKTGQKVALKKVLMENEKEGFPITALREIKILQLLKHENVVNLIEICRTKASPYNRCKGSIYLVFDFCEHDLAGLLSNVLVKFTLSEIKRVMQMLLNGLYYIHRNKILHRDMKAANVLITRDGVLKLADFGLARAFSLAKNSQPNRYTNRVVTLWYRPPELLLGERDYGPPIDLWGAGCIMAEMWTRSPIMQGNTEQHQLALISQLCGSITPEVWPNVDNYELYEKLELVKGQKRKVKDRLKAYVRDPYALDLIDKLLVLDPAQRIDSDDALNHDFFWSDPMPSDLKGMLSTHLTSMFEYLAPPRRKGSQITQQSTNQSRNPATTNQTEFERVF
Assay: Inhibition of CDK9 (unknown origin)
pIC50: −log10 of the molar value.
measured-quantity: pIC50

(A) Nc1nccc(-c2c[nH]c3nccc(O)c23)n1
(B) Nc1nccc(-c2c[nH]c3ncccc23)n1
For the pair A and B , which member has the lower pIC50 number? Kindly give the label for the entry you pick. B
(B: 5.00, A: 5.59)

----------
Assay: Cytotoxicity against HUVEC cells assessed as inhibition of cell growth incubated for 72 hrs by MTT assay
Type: toxicity, cell-based
Conditions: human
compounds and their reported IC50 at 72 h

Consider the reported IC50 at 72 h for these compounds:
CO[C@H]1/C=C\C=C(/C)C(=O)NC2=C(C)C(=O)C(NCCN(C)C)=C(C[C@@H](C)C[C@H](OC)[C@H](O)[C@@H](C)/C=C(\C)[C@@H]1OC(N)=O)C2=O (stereo in doubt)
> 20 µM
C=CCNC1=C2C[C@@H](C)C[C@H](OC)[C@H](O)[C@@H](C)/C=C(\C)[C@H](OC(N)=O)[C@@H](OC)/C=C\C=C(/C)C(=O)NC(=C(c3ccccc3)C1=O)C2=O (stereo in doubt)
> 20 µM

Now turn to the next compound.
Given the entry C=CCNC1=C2C[C@@H](C)C[C@H](OC)[C@H](O)[C@@H](C)/C=C(\C)[C@H](OC(N)=O)[C@@H](OC)/C=C\C=C(/C)C(=O)NC(=C(C)C1=O)C2=O (stereo in doubt) , report its measured IC50 at 72 h. > 20 µM
